Test system: HCI11 (cells of an ER-positive luminal breast cancer xenograft);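 also: PDX cells carrying CMV promoter-driven luciferase, viability read as total photon flux per second by IVIS imaging following D-luciferin, vehicle control 0.1% DMSO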
Test: cell viability (% of vehicle); higher = less cytotoxic
Conditions: 10 µM; 72 h
Listing of recorded cell viability by entry.
parameter: cell viability

* Cc1cn(C2CC(N=[N+]=[N-])C(CO)O2)c(=O)[nH]c1=O (centres undefined) [Zidovudine] | 101
* Cc1ccc(-n2[nH]c(C)c(NN=C3C=CC=C(c4cccc(C(=O)O)c4)C3=O)c2=O)cc1C.NCCO.NCCO [Eltrombopag Olamine] | 71
* C=C1C(=CC=C2CCCC3(C)C2CCC3C(C)C=CC(C)C(C)C)CC(O)CC1O (centres undefined) [Doxercalciferol] | 75.3
* COc1ccc(CC2c3cc(OC)c(OC)cc3CC[N+]2(C)CCC(=O)OCCCCCOC(=O)CC[N+]2(C)CCc3cc(OC)c(OC)cc3C2Cc2ccc(OC)c(OC)c2)cc1OC.O=S(=O)([O-])c1ccccc1.O=S(=O)([O-])c1ccccc1 (centres undefined) [Cisatracurium Besylate] | 109
* CC1CC2C3CCC4=CC(=O)C=CC4(C)C3(Cl)C(O)CC2(C)C1(OC(=O)c1ccco1)C(=O)CCl (centres undefined) [Mometasone furoate] | 115
* CCn1cc(C(=O)O)c(=O)c2cnc(N3CCCC3)nc21 [Piromidic Acid] | 110
* O=C(CCCCCCC(=O)Nc1ccccc1)NO [Vorinostat (SAHA, MK0683)] | 21.7
* COc1ccc2c(c1OC)C(=O)OC2C1c2c(cc3c(c2OC)OCO3)CCN1C.Cl (centres undefined) [Noscapine HCl] | 117
* CN1CCC(COc2cnc(-c3cccc(Cn4nc(-c5cccc(C#N)c5)ccc4=O)c3)nc2)CC1 | 57.6
* COc1ccc(C=Cc2cc(OC)c(OC)c(OC)c2)cc1OP(=O)([O-])[O-].[Na+].[Na+] [Fosbretabulin (Combretastatin A4 Phosphate (CA4P)) Disodium] | 115
* Nc1nc(N)nc(-c2cc(Cl)ccc2Cl)n1 [Irsogladine] | 89.7
* CN(C)CCC(c1ccccc1)c1ccccn1.O=C(O)C=CC(=O)O (centres undefined) [Pheniramine Maleate] | 101
* OCC(CO)NC1CC(O)(CO)C(O)C(O)C1O (centres undefined) [Voglibose] | 89.1
* Cc1cc(=O)[nH]c(=S)[nH]1 [Methylthiouracil] | 93.8
* CC(=O)Oc1ccc(C(c2ccc(OC(C)=O)cc2)c2ccccn2)cc1 [Bisacodyl] | 50.3
* COc1ccccc1Oc1c(NS(=O)(=O)c2ccc(C(C)(C)C)cc2)nc(-c2ncccn2)nc1OCCO.O [Bosentan Hydrate] | 101
* CC(C)(C)NCC(O)COc1cccc2c1CCC(O)=N2.Cl (centres undefined) [Carteolol HCl] | 110
* CCOC(=O)c1c(CSc2ccccc2)n(C)c2cc(Br)c(O)c(CN(C)C)c12.Cl [Arbidol HCl] | 114
* CC(=O)OC1(C(C)=O)CCC2C3C=C(C)C4=CC(=O)CCC4(C)C3CCC21C (centres undefined) [Megestrol Acetate] | 91.8
* CCC(=O)OCC(=O)C1(OC(=O)CC)C(C)CC2C3CCC4=CC(=O)C=CC4(C)C3(Cl)C(O)CC21C (centres undefined) [Beclomethasone dipropionate] | 123
* CCCN1CCCCC1C(=O)Nc1c(C)cccc1C.Cl.O (centres undefined) [Ropivacaine hydrochloride monohydrate] | 96.1
* Cc1ccc(-n2[nH]c(C)c(NN=C3C=CC=C(c4cccc(C(=O)O)c4)C3=O)c2=O)cc1C [Eltrombopag] | 60.9
* COc1ccnc(C[S+]([O-])c2nc3cc(OC(F)F)ccc3[nH]2)c1OC (centres undefined) [Pantoprazole] | 103
* O=C1CN(/N=C/c2ccc(-c3ccc([N+](=O)[O-])cc3)o2)C([O-])=N1.[Na+] [Dantrolene, sodium salt] | 99.1
* COc1cc2nccc(Oc3ccc(NC(=O)Nc4cc(C)on4)c(Cl)c3)c2cc1OC [Tivozanib (AV-951)] | 75.1
* Cl.NCCCC(N)(C(=O)O)C(F)F.O (racemic) [DL-α-Difluoromethylornithine (hydrochloride hydrate)] | 65.9
* [O-]n1ccccc1=S.[O-]n1ccccc1=S.[Zn+2] [Zinc Pyrithione] | 24.8
* Nc1c(CC(=O)[O-])cccc1C(=O)c1ccc(Br)cc1.[Na+] [Bromfenac Sodium] | 103
* CC(=O)Oc1ccccc1C(=O)Nc1ncc([N+](=O)[O-])s1 [Nitazoxanide] | 168
